- Protocol Text: NCI Yeast Anticancer Drug Screen. Data for the sgs1 mgt1 strain (AID 161)
- Conditions Used: S. cerevisiae sgs1 mgt1 strain, at 50.0 µM
This is part of a sample that, as a whole, favours compounds with a hit. Of some 79,000 tested, about 15% had one in any assay. Calls of active or inactive are those of the source. No stated cut-off is given here; in the data, active means growth inhibition above about 70%; inactive means the rest.
# output must be one of T for active, F for inactive

Sample answers from the record:
Compound	Label Value
COC(=O)CC1C(=O)OCc2c1cc1n(c2=O)Cc2c-1nc1ccccc1c2OC (stereo unspecified)	F
O=C(O)c1ccccc1N=N/C(=N\Nc1cc(S(=O)(=O)O)ccc1O)c1ccccc1	F
Cc1cc(Cl)cc2c1NC(=O)C2(O)C/C(=N/NC(=O)CC#N)c1cccc([N+](=O)[O-])c1 (stereo unspecified)	F
C/C(=N\NC(=S)N1CCC(O)CC1)c1ccccn1	T
CC(=O)C(C(=O)CCSCCO)C(SCCO)c1ccc(Cl)c(Cl)c1 (stereo unspecified)	T

Now consider a different compound.
Just curious, what result did CCOc1ccccc1C(=O)Oc1cccc(C)c1 get here?
F
